- system under test: HIV-1 envelope glycoprotein gp120 of virus 7141 (HIV-1)
- method notes: cell-based or functional assay
For each record, write down the corresponding neutralization IC50.
One number for each entry, in µg/mL.

binder="1.1.119-1 (antibody, human IgG1, kappa, V domains shown) VH: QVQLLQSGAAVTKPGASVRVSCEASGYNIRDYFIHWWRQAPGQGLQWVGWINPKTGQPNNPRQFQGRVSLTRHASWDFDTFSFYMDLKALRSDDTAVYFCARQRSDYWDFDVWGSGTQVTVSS VL: DIQMTQSPSSLSASVGDRATITCQANGYLNWYQQRRGKAPKLLIYDGSKLERGVPSRFSGSRWGQEYTLTISSLQPEDIATYFCQVYEFFGPGTRLDLKR" value_reported=6.92
binder="2.2.7-1 (antibody, human IgG1, kappa, V domains shown) VH: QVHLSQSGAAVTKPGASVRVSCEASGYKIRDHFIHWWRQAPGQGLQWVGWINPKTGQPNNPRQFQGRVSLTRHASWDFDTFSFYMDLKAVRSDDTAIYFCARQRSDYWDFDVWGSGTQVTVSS VL: DIQMTQSPSSLSARVGDRATITCQANGYLNWYQQRRGKAPKLLIYDGSKLERGVPARFSGSRWGQEYTLTISSLQPEDVATYFCQVYEFFGPGTRLDLKR" value_reported=1.58

Now, please, on to the next binder.
So what does the record say about neutralization IC50 for 2.2.18-1 (antibody, human IgG1, kappa, V domains shown) VH: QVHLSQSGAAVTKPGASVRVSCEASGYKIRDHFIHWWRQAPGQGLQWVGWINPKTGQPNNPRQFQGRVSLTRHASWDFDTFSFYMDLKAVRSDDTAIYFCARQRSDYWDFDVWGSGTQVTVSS VL: DIQMTQSPSSLSARVGDRATITCQANGYLNWYQQRRGKAPKLLIYDGSKLERGVPARFSGSRWGQEYHLTISSLQPEDVATYFCQVYEFFGPGTRLDLKR ?
5.04
